Reported AC50 values follow for various molecules
test system: SK-MEL-5 TRPM1-promoter luciferase reporter, 24 h; experiment: reducers of TRPM1 reporter luminescence – cell-based, SK-MEL-5, dry powder samples, set 3, MITF inhibitor project, dose response (AID 624259)

Some molecules with known AC50 results, for comparison:
COc1ccc(C2=C(NC(=O)c3ccc(Cl)cc3)C(=O)c3ccccc3C2=O)cc1; 33.6 µM
Cc1ccc(C(=O)NC2=C(c3ccc(OC(F)(F)F)cc3)C(=O)c3ccccc3C2=O)o1; 27.5 µM
CC(=O)NC1=C(c2cccc(Cl)c2)C(=O)c2ccccc2C1=O; 7.59 µM

molecule `C=CCNC1=C(NCCCN2CCOCC2)C(=O)c2ccccc2C1=O` , AC50 observed: 8.83 µM

molecule `O=C(NC1=C(c2ccc(OC(F)(F)F)cc2)C(=O)c2ccccc2C1=O)c1ccco1` , AC50 observed: 31.1 µM

molecule `COc1ccc(C(=O)NC2=C(c3ccccc3)C(=O)c3ccccc3C2=O)cc1` , AC50 observed: 14.7 µM

molecule `COc1cccc(C2=C(NC(=O)c3ccccc3)C(=O)c3ccccc3C2=O)c1` , AC50 observed: 32 µM

molecule `CN1CCN(C2=C(NC(=O)c3ccccc3)C(=O)c3ccccc3C2=O)CC1` , AC50 observed: 1.13 µM

molecule `O=C1C(NS(=O)(=O)c2ccc(Br)cc2)=C(N2CCCCC2)C(=O)c2ccccc21` , AC50 observed: 20.1 µM

molecule `C=CCNC1=C(NS(=O)(=O)c2ccc(Br)cc2)C(=O)c2ccccc2C1=O` , AC50 observed: 22.9 µM

----------
Reported activity change, negative = inhibition values follow for various molecules
test: reducers of TRPM1 reporter luminescence – cell-based, SK-MEL-5, dry powder samples, set 3, MITF inhibitor project, dose response (AID 624259); conditions: SK-MEL-5 TRPM1-promoter luciferase reporter, 24 h; at 35 µM (top of the series)
Activity calls are given as the source filed them.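 The calls were made as follows: active = luminescence drop whose fitted half-maximal dose is at or below twice the top valid tested dose; inconclusive = flat fit with 30 to 70% inhibition, or poor fit; inactive = the rest, including signal rises.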

Some molecules with known activity change, negative = inhibition results, for comparison:
C=CCNC1=C(NCC=C)C(=O)c2ccccc2C1=O; -10.6% (inactive)
COc1ccc(C(=O)NC2=C(c3ccc(OC(F)(F)F)cc3)C(=O)c3ccccc3C2=O)cc1; -7.11% (inactive)
COc1ccc(C2=C(NC(=O)c3ccc(OC)cc3-c3cccc(OC)c3)C(=O)c3ccccc3C2=O)cc1; 25.2% (inactive)

molecule `COc1ccc(C2=C(NC(=O)c3ccc4ccccc4c3)C(=O)c3ccccc3C2=O)cc1` , activity change, negative = inhibition observed: 24.2% (inactive)

molecule `COc1ccc(C2=C(NC(=O)c3ccccc3OC)C(=O)c3ccccc3C2=O)cc1` , activity change, negative = inhibition observed: 14.6% (inactive)

molecule `O=C(NC1=C(c2ccc(Oc3ccccc3)cc2)C(=O)c2ccccc2C1=O)c1ccccc1` , activity change, negative = inhibition observed: 17.5% (inactive)

----------
test system: SK-MEL-5 TRPM1-promoter luciferase reporter, 24 h; test: reducers of TRPM1 reporter luminescence – cell-based, SK-MEL-5, dry powder samples, set 3, MITF inhibitor project, dose response (AID 624259)
Parameter: AC50

Some compounds with known AC50 results, for comparison:
Cc1nc2ccccc2n1/N=C/c1ccc([N+](=O)[O-])s1; 3.29 µM
C=CCNC1=C(NCCCN(CC)CC)C(=O)c2ccccc2C1=O; 5.77 µM

compound `CN1CCN(C2=C(NS(=O)(=O)c3cccs3)C(=O)c3ccccc3C2=O)CC1` , AC50 observed: 2.69 µM

compound `O=C(NC1=C(N2CCSCC2)C(=O)c2ccccc2C1=O)c1ccccc1` , AC50 observed: 5.8 µM

compound `O=C(NC1=C(c2ccc(OC(F)(F)F)cc2)C(=O)c2ccccc2C1=O)c1ccccc1` , AC50 observed: 31.3 µM

----------
test system: SK-MEL-5 TRPM1-promoter luciferase reporter, 24 h; test: reducers of TRPM1 reporter luminescence – cell-based, SK-MEL-5, dry powder samples, set 3, MITF inhibitor project, dose response (AID 624259)
Parameter: AC50

O=C(NC1=C(c2ccc(OC(F)(F)F)cc2)C(=O)c2ccccc2C1=O)c1ccccc1F; 34.7 µM
O=C(NC1=C(c2ccccc2)C(=O)c2ccccc2C1=O)c1ccco1; 9.91 µM
C=CCNC1=C(N2CCSCC2)C(=O)c2ccccc2C1=O; 3.98 µM
CC1CCN(CC(CS(=O)(=O)c2ccc([N+](=O)[O-])cc2)N2CCC(C)CC2)CC1 (configuration not stated); 14.2 µM
CCN1c2ccccc2NC2N=C(OC)C(c3ccccc3)C21 (configuration not stated); 4.27 µM

compound `CC(=O)NC1=C(c2ccc3c(c2)oc2ccccc23)C(=O)c2ccccc2C1=O` , AC50 observed: 5.89 µM

compound `COc1ccc(C2=C(NC(=O)c3ccccc3Cl)C(=O)c3ccccc3C2=O)cc1` , AC50 observed: 11.8 µM

----------
test system: SK-MEL-5 TRPM1-promoter luciferase reporter, 24 h; assay: reducers of TRPM1 reporter luminescence – cell-based, SK-MEL-5, dry powder samples, set 3, MITF inhibitor project, dose response (AID 624259)
Reported AC50 values follow for various compounds

Some compounds with known AC50 results, for comparison:
O=C1C(Nc2ccccc2)=C(N2CCOCC2)C(=O)c2ccccc21; 8.43 µM
COc1ccc(C(=O)NC2=C(c3ccc(OC)cc3)C(=O)c3ccccc3C2=O)cc1; 11.9 µM
O=C1C(NS(=O)(=O)c2cccs2)=C(N2CCOCC2)C(=O)c2ccccc21; 14.9 µM
C=CCNC1=C(N2CCOCC2)C(=O)c2ccccc2C1=O; 3.46 µM

compound `COc1ccc(C2=C(NC(=O)c3cccc(OC)c3)C(=O)c3ccccc3C2=O)cc1` , AC50 observed: 17.5 µM

compound `O=C(NC1=C(c2ccc(OC(F)(F)F)cc2)C(=O)c2ccccc2C1=O)c1ccc(Br)cc1` , AC50 observed: 35.1 µM

compound `O=C(CNc1cccc2ccccc12)N/N=C/c1ccc([N+](=O)[O-])o1` , AC50 observed: 3.08 µM

compound `CC(=O)NC1=C(c2ccc(Cl)cc2)C(=O)c2ccccc2C1=O` , AC50 observed: 8 µM

compound `CC(=O)NC1=C(c2ccccc2)C(=O)c2ccccc2C1=O` , AC50 observed: 8.08 µM

compound `CCN1CCN(C2=C(NC(=O)c3ccccc3)C(=O)c3ccccc3C2=O)CC1` , AC50 observed: 1.27 µM

compound `C=CCNC1=C(N2CCN(C)CC2)C(=O)c2ccccc2C1=O` , AC50 observed: 7.93 µM

compound `CC(=O)NC1=C(c2ccc(Oc3ccccc3)cc2)C(=O)c2ccccc2C1=O` , AC50 observed: 28.1 µM

compound `C=CCNC1=C(N2CCCCC2)C(=O)c2ccccc2C1=O` , AC50 observed: 0.722 µM

compound `O=C(NC1=C(Cl)C(=O)c2ccccc2C1=O)c1ccccc1` , AC50 observed: 1.1 µM

compound `CCN1CCN(C2=C(NS(=O)(=O)c3cccs3)C(=O)c3ccccc3C2=O)CC1` , AC50 observed: 6.16 µM
